- ASSAY METHOD TEXT: Toxicity liver stage against HepG2, at 10uM
- Type: cell-based
- Set-up: test concentration 10 uM, cell line HepG2-A16-CD81EGFP
- EXPERIMENTAL PARAMETERS: human, HepG2-A16-CD81EGFP cells; read-out: INHIBITION
Property: cytotoxicity at 10 µM; scope: individual molecules

| MOLECULE | cytotoxicity at 10 µM [%] |
| --- | --- |
| CN(C)CCC(Nc1nc(N)nc2c1CCNCC2)c1ccccc1 (configuration not stated) | -4.32 |
| CN(Cc1ccccc1)CC1CC2(CO1)CN(Cc1nccs1)C2 (configuration not stated) | 8.88 |
| Cc1nc(CN(CCc2ccccc2)C2CCN(C)CC2)no1 | -4 |
| Cn1nccc1CNC(=O)C1CCCCC1 | 7.89 |
| Cc1nccc(-c2ccccc2)c1C(=O)N1CC[C@](C)(O)[C@H](C)C1 | 3.41 |
| COCC1CN(c2ccc3c(Cl)ccnc3c2F)CCO1 (configuration not stated) | 25 |
| CCOc1cccc(C(C)NCc2ccc(OC)c(OC)c2OC)c1 (configuration not stated) | 29.4 |
| CN(c1c(F)cccc1F)S(=O)(=O)c1cc2c(c(C(=O)O)c1)OCCO2 | -7.57 |
| O=C(NCCc1c[nH]cn1)c1ccccc1C1CCNC1 (configuration not stated) | 12.8 |
| O=C(NCc1nncn1C1CC1)C1(c2cccc(F)c2)CCOCC1 | -2.07 |
| O=C([C@H]1C[C@H]2OCC[C@H]2N(CCc2ccccc2)C1)N1CCCCO1 | 0.307 |
| CN(C)S(=O)(=O)N1CCC(OCCCc2ccccc2)C1 (configuration not stated) | 0.696 |
